# assay.procedure: clinical
# condition.label: male, human, in vivo, po, 64 mg
recorded.metric: Tmax (h)
I only need the number, in h, no unit after it.

Req: Please report the recorded Tmax for Cc1nccn1C[C@H]1CCc2c(c3cccc4c3n2CCC4)C1=O .
Resp: 1

----------
# assay.procedure: clinical
# condition.label: male, human, in vivo, 8 mg, CLr
recorded.metric: CL renal (mL/min)
// return numeric value only (unit: mL/min, not printed)

Req: Value lookup for CL renal; key = Cc1nccn1C[C@H]1CCc2c(c3cccc4c3n2CCC4)C1=O [Cilansetron]
Resp: 4.68

----------
# assay.procedure: clinical
# condition.label: female, human, in vivo, po, 16 mg
recorded.metric: Tmax (h)
Dear colleague, please return just the value in h, with no unit written.

Req: Any idea what Tmax was measured for Cc1nccn1C[C@H]1CCc2c(c3cccc4c3n2CCC4)C1=O ?
Resp: 1
